This collection of values is drawn from PubChem BioAssay (NCI).

Tested on: SF-268 CNS
assayName: NCI tumour cell line growth inhibition, 48 h
We begin with a simple list: items and their reported GI50.

Some solved entries appear below for comparison.
INSERT INTO results (compound, readoutkind, result) VALUES
  ('C=C(CN1CCc2ccccc2C1)c1ccc(/C=C/C(=O)Nc2ccccc2N)cc1', 'GI50', '2440 nM'),
  ('COc1cc(/C=C2\CC(C)CC3C2=NN(c2ccccc2)C3c2cc(OC)c(OC)c(OC)c2)cc(OC)c1OC (stereo not drawn)', 'GI50', '14100 nM');

Now consider a different compound.
Q: Notebook: pull reported GI50 for SF-268 CNS, entry Clc1ccc(Nc2ccnc(NCCNc3ccnc4cc(Cl)ccc34)n2)cc1
Ans: 1450 nM
